Record form. Attribute: human MASP1 IC50. Fill in for each entry.
Biological target: T1, Recombinant human MASP1 enzyme (fragment corresponding to amino acids 297-699, C-terminal His Tag) (human, UniProt P48740 297-699)
T1 sequence: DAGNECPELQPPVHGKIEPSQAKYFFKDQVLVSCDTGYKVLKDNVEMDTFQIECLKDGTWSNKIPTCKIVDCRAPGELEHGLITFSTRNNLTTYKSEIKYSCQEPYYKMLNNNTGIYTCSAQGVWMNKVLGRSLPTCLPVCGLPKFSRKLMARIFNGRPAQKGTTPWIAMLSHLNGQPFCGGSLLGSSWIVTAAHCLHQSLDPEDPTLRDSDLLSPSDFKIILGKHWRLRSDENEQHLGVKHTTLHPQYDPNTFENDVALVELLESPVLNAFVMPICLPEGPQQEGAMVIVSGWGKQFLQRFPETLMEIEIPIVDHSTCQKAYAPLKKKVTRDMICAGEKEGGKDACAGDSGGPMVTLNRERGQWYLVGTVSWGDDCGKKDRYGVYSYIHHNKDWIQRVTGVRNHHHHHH
Experiment: cell-based or functional assay
Numbered stars: 1 amine (or outer) side, 2 acyl side, 3 side chain; on linkers, the order of the positions; unused ones are H or OH. Bridge positions count the residues as written; N and C are the ends. Square brackets hold non-standard residues; d marks the D form. Ends that are not written are not given here. * marks the point of attachment. Freidinger's Lactam = (2S)-2-[(3R)-3-amino-2-oxopyrrolidin-1-yl]-4-methylpentanoic acid (Freidinger's lactam), CC(C)C[C@@H](C(=O)[*:2])N1CC[C@@H](N[*:1])C1=O; (R)‑Pyrrolidine‑3‑acetic acid = O=C(C[C@H]1CCN([*:1])C1)[*:2]; Benzoyl(4-COOH) = O=C(O)c1ccc(C(=O)*)cc1; Oic = O=C(O)[C@@H]1C[C@@H]2CCCC[C@@H]2N1; tBuAla = CC(C)(C)C[C@H](N)C(=O)O; Pen = CC(C)(S)[C@H](N)C(=O)O; Sar = CNCC(=O)O
Answer with a number only, understood to be in nM.

*Q* Give recorded human MASP1 IC50. [Sar]ICSRSLP[Oic]I[Pen]IP[Freidinger's Lactam]-OH (disulfide 3-11; N-terminus assumed; SMILES CC[C@H](C)[C@H](NC(=O)CNC)C(=O)N[C@H]1CSSC(C)(C)[C@@H](C(=O)N[C@H](C(=O)N2CCC[C@H]2C(=O)N[C@@H]2CCN([C@@H](CC(C)C)C(=O)O)C2=O)[C@@H](C)CC)NC(=O)[C@H]([C@@H](C)CC)NC(=O)[C@@H]2C[C@@H]3CCCC[C@@H]3N2C(=O)[C@@H]2CCCN2C(=O)[C@H](CC(C)C)NC(=O)[C@H](CO)NC(=O)[C@H](CCCNC(=N)N)NC(=O)[C@H](CO)NC1=O) [((N-Me)G)-IC+SRSLP-(Oic)-I-(Pen)+IP-(Freidinger's Lactam)-OH]
*A* 23

*Q* Entry [Sar]FCTRK[tBuAla][Pen]YPD-OH (disulfide 3-8; N-terminus assumed; SMILES CNCC(=O)N[C@@H](Cc1ccccc1)C(=O)N[C@H]1CSSC(C)(C)[C@@H](C(=O)N[C@@H](Cc2ccc(O)cc2)C(=O)N2CCC[C@H]2C(=O)N[C@@H](CC(=O)O)C(=O)O)NC(=O)[C@H](CC(C)(C)C)NC(=O)[C@H](CCCCN)NC(=O)[C@H](CCCNC(=N)N)NC(=O)[C@H]([C@@H](C)O)NC1=O) [((N-Me)G)-FC+TRK-((tBu)A)-(Pen)+YPD-OH] needs its human MASP1 IC50 filled in; supply it.
*A* 1000

*Q* Tell us which human MASP1 IC50 value is on record for [Sar]ICSRSLP[Oic]I[Pen]IP[(R)‑Pyrrolidine‑3‑acetic acid]-OH (disulfide 3-11; N-terminus assumed; SMILES CC[C@H](C)[C@H](NC(=O)CNC)C(=O)N[C@H]1CSSC(C)(C)[C@@H](C(=O)N[C@H](C(=O)N2CCC[C@H]2C(=O)N2CC[C@H](CC(=O)O)C2)[C@@H](C)CC)NC(=O)[C@H]([C@@H](C)CC)NC(=O)[C@@H]2C[C@@H]3CCCC[C@@H]3N2C(=O)[C@@H]2CCCN2C(=O)[C@H](CC(C)C)NC(=O)[C@H](CO)NC(=O)[C@H](CCCNC(=N)N)NC(=O)[C@H](CO)NC1=O) [((N-Me)G)-IC+SRSLP-(Oic)-I-(Pen)+IP-((R)-Pyrrolidine-3-acetic acid)-OH]
*A* 6.78

*Q* Name the recorded human MASP1 IC50 of the binder listed here: [Sar]ICSRS[(2S)‑2‑Amino‑5‑methyl‑hexanoic acid]PPI[Pen]IPD-OH (disulfide 3-11) [((N-Me)G)-IC+SRS-((2S)-2-Amino-5-methyl-hexanoic acid)-PPI-(Pen)+IPD-OH]
*A* 65

*Q* Dear colleague, please send me the reported human MASP1 IC50 for {Benzoyl(4-COOH)}-GICSRSLP[Oic]I[Pen]IPD-OH (disulfide 3-11; SMILES CC[C@H](C)[C@H](NC(=O)CNC(=O)c1ccc(C(=O)O)cc1)C(=O)N[C@H]1CSSC(C)(C)[C@@H](C(=O)N[C@H](C(=O)N2CCC[C@H]2C(=O)N[C@@H](CC(=O)O)C(=O)O)[C@@H](C)CC)NC(=O)[C@H]([C@@H](C)CC)NC(=O)[C@@H]2C[C@@H]3CCCC[C@@H]3N2C(=O)[C@@H]2CCCN2C(=O)[C@H](CC(C)C)NC(=O)[C@H](CO)NC(=O)[C@H](CCCNC(=N)N)NC(=O)[C@H](CO)NC1=O) [(4-Carboxybenzoic acid)-GIC+SRSLP-(Oic)-I-(Pen)+IPD-OH] when you can.
*A* 19.5
